Tested on: MDA-MB-231 breast
Experiment: NCI tumour cell line growth inhibition, 48 h
value-kind: TGI (µM)
Kindly provide the numeric value in µM only, without the unit symbol.

Query string: Give the measured TGI for `Cc1c(-c2c(-c3ccc(F)o3)sc3ncnc(O[C@H](Cc4ccccc4OCc4ccnn4CC(F)(F)F)C(=O)O)c23)ccc(OCCN2CCN(C)CC2)c1Cl`
Result string: 7.84

Query string: Read off the recorded TGI for COC(=O)C1=C(C(=O)ON)C2C=CC1(C(Cc1ccccc1)Nc1ccccc1)O2 (centres undefined)
Result string: 3.59

----------
Tested on: RXF-631 renal
Assay: NCI tumour cell line growth inhibition, 48 h
value-kind: TGI

Query string: Item CC1(c2cccc3ccccc23)OC(=O)c2ccccc21 (centres undefined) : provide TGI
Result string: 70.7 µM

Query string: // Input: `O=C(CO)CC(=O)C(=O)Nc1ccccc1` . Output its TGI only.
Result string: > 100 µM

Query string: Please supply the value of reported TGI for the item CC(C)c1ccc(C2C3=C(N=C4SCC(=O)N42)C(=O)c2ccccc23)cc1 (centres undefined)
Result string: > 100 µM

Query string: Tell us which TGI value is on record for BrC1=CC=C2NC=CC3=CC=NC1C32 (centres undefined)
Result string: > 100 µM

Query string: Please look at this molecule and report its TGI: CC(=O)OC1COC(Nc2ccc(C(C)=O)cc2)C(OC(C)=O)C1OC(C)=O (centres undefined)
Result string: > 100 µM

Query string: Indicate its recorded TGI; the molecule in question is COC(=O)C(=O)OC1(C(C)=O)CC2(c3ccccc3)OC1(c1ccccc1)c1ccccc12 (centres undefined)
Result string: > 100 µM

Query string: Item `C[S+](C)CCOC(=O)C(=[N+]=[N-])c1ccc([N+](=O)[O-])cc1` : provide TGI
Result string: > 100 µM

Query string: Note down TGI recorded for `CCOC(=O)N1CCc2cc(OC)c(OC)c3c2c1cc1cc(OC)c(OC)cc13`
Result string: 66 µM

Query string: Give me measured TGI, please, for this molecule: CCCCCC/C=C1\CCC(CN2CCCC2)C1=O (centres undefined)
Result string: 42.2 µM

----------
Tested on: UACC-257 melanoma
Test: NCI tumour cell line growth inhibition, 48 h
value-kind: TGI

Query string: Assign TGI to the following record: `Cc1ccccc1C(=O)c1ccccc1O`
Result string: > 100 µM

Query string: Retrieve TGI measured for `COC(=O)Nc1nc2cc(OC)c(OC)cc2c(=O)[nH]1` and print it.
Result string: > 100 µM

Query string: Tell me TGI reported for `Nc1nc(N)c(NC(=O)CCCO)c(=O)[nH]1`
Result string: > 100 µM

Query string: Tell me measured TGI for CCC(CO)Nc1nc(NCc2ccccc2O)c2ncn(C(C)C)c2n1 (stereo unspecified) please.
Result string: > 100 µM

Query string: Write down TGI measured for item CC(=O)OC(C)C1C2=C(C(=O)CC1(C)O)C(=O)c1c(ccc(-c3ccc4c(c3O)C(=O)C3=C(C4=O)C(C(C)OC(C)=O)C(C)(O)CC3=O)c1O)C2=O (stereo unspecified)
Result string: 3.48 µM

Query string: // fetch TGI given entry `Cc1cc(S(N)(=O)=O)c(S/C(CC(C)C)=N\Nc2ccc([N+](=O)[O-])cc2)cc1Cl`
Result string: 33.8 µM

Query string: Identify TGI associated with the compound `O=c1c2ccccc2n(C[C@H]2CO2)c2ccccc12`
Result string: 4.46 µM

Query string: Annotate the compound `Cc1ccccc1N=Nc1ccc(NC(=O)c2ccnn2C)c(C)c1` with its measured TGI.
Result string: > 100 µM

Query string: Consider the compound `c1ccc(N=C(Nc2ccccc2)N2CCCCC2)cc1` and give its recorded TGI.
Result string: 68.9 µM

Query string: Fill in TGI for record `CCOc1ccc(-c2nonc2NC(=O)c2cccc(C)c2)cc1OCC`
Result string: > 100 µM

Query string: Let me know recorded TGI for `O=C1c2cc3c(cc2-c2c1c1ccc(Cl)cc1c(=O)n2CCCNCCO)OCO3` , thanks.
Result string: 2.43 µM

----------
Please respond with reported GI50 for every item in the list.
System: T-47D breast
Assay: NCI tumour cell line growth inhibition, 48 h

Query string: State, in one line, measured GI50 of `c1ccc2[nH]c(-c3ccc(NN=Nc4ccncc4)cc3)nc2c1`
Result string: 93 µM

Query string: Report GI50 for `CC(C)(O)CS(=O)(=O)Nc1ccc2c(c1)CCN(C(=O)COc1cccnc1)C2`
Result string: > 35.2 µM

Query string: Supply reported GI50 belonging to this molecule: `N[C@@H]1CCCC[C@H]1N.O=C([O-])C(=O)[O-].[Pt+4]`
Result string: 2.21 µM

Query string: Give the value of GI50 reported for the following: `Cc1ccccc1N=Nc1ccc(NC(=O)c2ccnn2C)c(C)c1`
Result string: 9.9 µM

Query string: Specify reported GI50 for the molecule shown: `CCc1c(C#N)c(S[C@@H](C(N)=O)c2ccccc2)nc(N(C)C)c1C#N`
Result string: > 100 µM

Query string: State its GI50 for this molecule: O=C1NC(O)C(c2c[nH]c3ccccc23)=C1c1c[nH]c2ccccc12 (stereo not given)
Result string: > 25 µM

Query string: Using known records, supply GI50 for `O=C(CNc1ccc2c(c1)C(=O)c1ccccc1C2=O)Nc1ccc2c(c1)C(=O)c1ccccc1C2=O`
Result string: 0.604 µM

Query string: Output measured GI50 for this item: CCC(CO)Nc1nc(NCc2ccccc2O)c2ncn(C(C)C)c2n1 (stereo not given)
Result string: 5.07 µM

Query string: Supply measured GI50 of `COC(=O)c1c2c(c(C)[n+]([O-])c1C)C(=O)C=C(NCc1ccc(F)c(Cl)c1)C2=O` in your reply.
Result string: 0.0638 µM

Query string: Name the recorded GI50 of the molecule listed here: `O=C(c1ccco1)c1nc2cc(Cl)ccc2[n+]([O-])c1C(F)(F)F`
Result string: 27.5 µM

----------
Test system: SK-OV-3 ovarian
Assay: NCI tumour cell line growth inhibition, 48 h
Please respond with reported GI50 for every item in the list.

Query string: Check the records and state GI50 for `COc1ccccc1CCN=C1NC(=O)/C(=C/c2ccc3ncccc3c2)S1`
Result string: 5.67 µM

Query string: Consider the compound `CC[C@H](Nc1nc(NCc2cnc(C)cc2C)c2ncn(C(C)C)c2n1)[C@@H](C)O` . State its measured GI50.
Result string: 3.89 µM

Query string: Report measured GI50; entry is `CC(C)(O)CS(=O)(=O)Nc1ccc2c(c1)CCN(C(=O)COc1cccnc1)C2`
Result string: > 100 µM

Query string: State its GI50: `O=C(c1ccco1)c1nc2cc(Cl)ccc2[n+]([O-])c1C(F)(F)F`
Result string: > 100 µM

Query string: Identify GI50 associated with the compound O=c1ccn(C2OC(CO/N=C/c3ccc(O)c(O)c3O)C(O)C2O)c(=O)[nH]1 (stereo not given)
Result string: 27.2 µM

Query string: Input `COc1cc2c3c(n(CCCN)c(=O)c2cc1OC)-c1cc2c(cc1/C3=C\CCN)OCO2` , output reported GI50.
Result string: 6 µM

Query string: Note GI50 for the compound shown: `CCOc1ccc(-c2nonc2NC(=O)c2cccc(C)c2)cc1OCC`
Result string: > 100 µM

Query string: State, in one line, measured GI50 of `O=C(Nc1cc(Cl)cc(Cl)c1)c1ccc(NC2=C(Cl)C(=O)N(Cc3ccc(Cl)cc3Cl)C2=O)cc1`
Result string: 55.3 µM

Query string: Look up and report measured GI50 for this entry: `Cc1ccccc1N=Nc1ccc(NC(=O)c2ccnn2C)c(C)c1`
Result string: 24 µM

Query string: Output measured GI50 for this item: COC(=O)C1=C(C(=O)ON)C2C=CC1(C(Cc1ccccc1)Nc1ccccc1)O2 (stereo not given)
Result string: 14.8 µM

----------
Tested on: HOP-62 NSCLC
Assay: NCI tumour cell line growth inhibition, 48 h
Please respond with reported TGI for every item in the list.
Return type: number; implicit unit µM.

Query string: Return value of TGI for input COc1cc(C)c(Cl)cc1C1=NN(c2ccc(S(N)(=O)=O)cc2)C(/C=C/c2ccccc2)C1 (centres undefined) , no commentary.
Result string: 11.8

Query string: Given `Oc1cc(Br)cc2cccnc12` , respond with its TGI.
Result string: 81.9

Query string: Indicate the recorded TGI value for this molecule: `CN(CCCCN1CCCC1)CCCN(C)C(=O)Cc1ccc(Cl)c(Cl)c1`
Result string: 34.4

Query string: Give me measured TGI, please, for this molecule: `Cn1c(=O)nc2n(-c3cccc(Br)c3)c3ccccc3nc-2c1=O`
Result string: 28

----------
System: OVCAR-8 ovarian
Assay: NCI tumour cell line growth inhibition, 48 h; in the data active means GI50 below about 0.43 µM; inactive means the rest
Please state which outcome applies, choosing from YES for active, NO for inactive

Query string: Hi team, can someone confirm the assay call for `COc1cc2cc(Oc3ccc(NC(=O)Nc4cccc(C(F)(F)F)c4)cc3)c(C)nc2cc1OC` ?
Result string: NO

Query string: Short answer needed: outcome of this test for `N#Cc1nc2c(S(=O)(=O)c3ccccc3)c(N)n(Cc3cccnc3)c2nc1C#N` ?
Result string: NO

Query string: What call does the record list for COC1CC2CCC(C)C(O)(O2)C(=O)C(=O)N2CCCCC2C(=O)OC(C(C)CC2CCC(O)C(OC)C2)CC(=O)C(C)C=C(C)C(O)C(OC)C(=O)C(C)CC(C)/C=C/C=C/C=C1C (stereo not drawn) ?
Result string: YES

Query string: Recorded call for `Cc1ccccc1N=Nc1ccc(NC(=O)c2ccnn2C)c(C)c1` ?
Result string: NO

Query string: Hey, what did the test say about `COc1ccc(-n2nnnc2-c2c[nH]c3c(F)cc(F)cc23)cc1` ?
Result string: NO

Query string: Give the logged outcome of this assay for the following compound: COC(=O)C1=C(C(=O)ON)C2C=CC1(C(Cc1ccccc1)Nc1ccccc1)O2 (stereo not drawn)
Result string: NO

Query string: Please state the recorded outcome for this compound: `C=CC(=O)N1CCN(c2nc(=O)n(-c3c(C)ccnc3C(C)C)c3nc(-c4c(O)cccc4F)c(F)cc23)[C@@H](C)C1`
Result string: NO

Query string: Per the assay record, what outcome was assigned to C#CCC(Cc1cnc2nc(N)nc(N)c2n1)c1ccc(C(=O)N[C@@H](CCC(=O)O)C(=O)O)cc1 (stereo partly drawn) ?
Result string: YES
